Target: Jurkat cells expressing CXCR4 (Homo sapiens)
Construct: Jurkat cells expressing CXCR4; endogenous in cells
Sequence (P61073 whole entry): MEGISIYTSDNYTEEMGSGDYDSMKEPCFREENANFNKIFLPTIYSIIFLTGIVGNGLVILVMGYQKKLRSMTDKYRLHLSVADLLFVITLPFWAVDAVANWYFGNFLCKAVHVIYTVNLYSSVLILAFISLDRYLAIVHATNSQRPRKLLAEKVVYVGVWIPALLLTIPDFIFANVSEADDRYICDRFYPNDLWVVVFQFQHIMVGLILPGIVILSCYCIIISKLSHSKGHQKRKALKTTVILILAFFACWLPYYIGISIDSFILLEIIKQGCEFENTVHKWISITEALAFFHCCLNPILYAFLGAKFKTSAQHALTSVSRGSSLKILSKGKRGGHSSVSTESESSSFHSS
Test: Chemokine (CXCL12-AF647) binding inhibition assay
Conditions: CXCL12-AF647 25 ng/mL, read-out: IC50 CXCL-12 binding Jurkat
Experimental: Jurkat cells expressing CXCR4 were washed once with assay buffer (Hanks' balanced salt solution with 20 mM HEPES buffer and 0.2% bovine serum albumin, pH 7.4) and then incubated for 15 min at room temperature with the test compounds diluted in assay buffer at dose-dependent concentrations. Subsequently, CXCL12-AF647 (25 ng/mL) was added to the compound-incubated cells. The cells were incubated for 30 min at room temperature. […]
pIC50: −log10 of the molar value.
compounds and their reported pIC50

Cn1c(CN(CCc2c[nH]cn2)[C@H]2CCCc3cccnc32)nc2ccccc21    7.00 to 11.00
Cn1c(CN(CCc2c[nH]cn2)[C@H]2CCCc3cccnc32)nc2cccc(F)c21    7.00 to 11.00
COc1cccc(CCN(Cc2ncccc2C)Cc2ncccc2C)n1    7.00 to 11.00
Cc1cccnc1CN(CCc1ccccn1)Cc1ncccc1Cl    7.00 to 11.00
Cc1cccnc1CN(CCc1cnc[nH]1)Cc1nccc2ccccc12    7.00 to 11.00

Exercise: What measured pIC50 goes with c1ccc2c(CN(CCc3c[nH]cn3)Cc3nccs3)nccc2c1 ?
Key: 6.00 to 7.00
